- Tested on: Escherichia coli TOP10
- ASSAY SUMMARY: shrunken log2 fold change of peptide-encoding DNA abundance (4.5 h post-induction vs induction); higher = less antimicrobial activity (less host growth inhibition)
- CONDITION SET: time post-induction: 4.5 h; library: site-saturation at positions 5, 18, 19, 20
Classes are defined on shrunken log2 fold change with ranges low interval: < -0.2; middle interval: ≥ -0.2 and < 0.08; high interval: ≥ 0.08

(Q) Input RRIRDRPPRLPRPRPRPNNWPRP ; output its category
(A) middle interval

(Q) Let us now turn to RRIRVRPPRLPRPRPRPYFVPRP
(A) high interval

(Q) Let us now turn to RRIRLRPPRLPRPRPRPPGYPRP
(A) middle interval

(Q) Let us now turn to RRIRPRPPRLPRPRPRPKVAPRP
(A) middle interval

(Q) Let us now turn to RRIRERPPRLPRPRPRPYHGPRP
(A) low interval

(Q) Let us now turn to RRIRCRPPRLPRPRPRPRCRPRP
(A) high interval

---

- System: Escherichia coli TOP10;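 also: peptides expressed intracellularly from a pBAD plasmid library in pooled LB shake-flask culture, induced with 0.3% L-arabinose, DNA abundance read by NGS, three biological replicates, DESeq2 with apeglm shrinkage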
- ASSAY SUMMARY: shrunken log2 fold change of peptide-encoding DNA abundance (4.5 h post-induction vs induction); higher = less antimicrobial activity (less host growth inhibition)
- CONDITION SET: time post-induction: 4.5 h; library: site-saturation at positions 5, 18, 19, 20
Measured shrunken log2 fold change values are reported for all entries that follow.
Reply with just the number.

Use the examples below as a reference point.
[
  {
    "RECORD SEQUENCE": "RRIRVRPPRLPRPRPRPPRTPRP",
    "EXPERIMENTAL SYSTEM": "Escherichia coli TOP10",
    "shrunken log2 fold change": 0.331
  },
  {
    "RECORD SEQUENCE": "RRIRHRPPRLPRPRPRPMIEPRP",
    "EXPERIMENTAL SYSTEM": "Escherichia coli TOP10",
    "shrunken log2 fold change": 0.0253
  },
  {
    "RECORD SEQUENCE": "RRIRRRPPRLPRPRPRPVPFPRP",
    "EXPERIMENTAL SYSTEM": "Escherichia coli TOP10",
    "shrunken log2 fold change": 0.0998
  },
  {
    "RECORD SEQUENCE": "RRIRQRPPRLPRPRPRPRMAPRP",
    "EXPERIMENTAL SYSTEM": "Escherichia coli TOP10",
    "shrunken log2 fold change": 0.0146
  },
  {
    "RECORD SEQUENCE": "RRIRPRPPRLPRPRPRPYMAPRP",
    "EXPERIMENTAL SYSTEM": "Escherichia coli TOP10",
    "shrunken log2 fold change": -1.07
  },
  {
    "RECORD SEQUENCE": "RRIRRRPPRLPRPRPRPTTWPRP",
    "EXPERIMENTAL SYSTEM": "Escherichia coli TOP10",
    "shrunken log2 fold change": 0.28
  },
  {
    "RECORD SEQUENCE": "RRIRFRPPRLPRPRPRPGHPPRP",
    "EXPERIMENTAL SYSTEM": "Escherichia coli TOP10",
    "shrunken log2 fold change": -0.0866
  },
  {
    "RECORD SEQUENCE": "RRIRGRPPRLPRPRPRPGYYPRP",
    "EXPERIMENTAL SYSTEM": "Escherichia coli TOP10",
    "shrunken log2 fold change": -0.301
  }
]

(Q) May I ask what shrunken log2 fold change has been recorded for RRIRWRPPRLPRPRPRPNRHPRP ?
(A) 0.0506

(Q) Let us now turn to RRIRKRPPRLPRPRPRPGMNPRP
(A) -0.0284

(Q) Let us now turn to RRIRERPPRLPRPRPRPCEVPRP
(A) 0.028

(Q) Let us now turn to RRIRRRPPRLPRPRPRPNWEPRP
(A) -0.0176

(Q) Let us now turn to RRIRCRPPRLPRPRPRPELPPRP
(A) 0.762

(Q) Let us now turn to RRIRVRPPRLPRPRPRPHACPRP
(A) 0.0734

(Q) Let us now turn to RRIRNRPPRLPRPRPRPQRDPRP
(A) 0.0103

(Q) Let us now turn to RRIRWRPPRLPRPRPRPWLMPRP
(A) 0.116

(Q) Let us now turn to RRIRKRPPRLPRPRPRPGLKPRP
(A) 0.377

(Q) Let us now turn to RRIRTRPPRLPRPRPRPRGWPRP
(A) 0.897

(Q) Let us now turn to RRIRARPPRLPRPRPRPAAMPRP
(A) 0.856

(Q) Let us now turn to RRIRSRPPRLPRPRPRPQYVPRP
(A) -0.22

(Q) Let us now turn to RRIRHRPPRLPRPRPRPATNPRP
(A) 0.607

(Q) Let us now turn to RRIRRRPPRLPRPRPRPEFEPRP
(A) 0.37

(Q) Let us now turn to RRIRDRPPRLPRPRPRPSIYPRP
(A) -0.313

(Q) Let us now turn to RRIRYRPPRLPRPRPRPIAMPRP
(A) -0.322
